Recorded values, source ChEMBL document CHEMBL3867443.

List of Activity values.
test: Neuroprotective activity in rat PC12 cells assessed as reduction in corticosterone-induced lesions by measuring cell viability at 25 uM pretreated for 24 hrs followed by corticosterone-challenge after 48 hrs by MTT assay; format: functional, cell-based; details: PC-12
Respond numerically; units are % and should not be typed.

// below: answered compounds
- C=C(C)C(CC=C(C)C)Cc1c2c(c(O)c3c(=O)c4ccc(O)c(O)c4oc13)C=CC(C)(C)O2 (stereo unspecified): 65.4
- C[C@]12C[C@H](O)[C@H]3[C@@H](CCC4=CC(=O)CC[C@@]43C)[C@@H]1CC[C@@H]2C(=O)CO: 52.8
- C=C(C)[C@H](CC=C(C)C)Cc1c(O)c(C[C@@H](CC=C(C)C)C(=C)C)c2oc3c(O)c(O)ccc3c(=O)c2c1O: 92

Q: Could you tell me which Activity is on file for C=C(C)[C@H](CC=C(C)C)Cc1c(O)cc2oc3c(O)c(O)ccc3c(=O)c2c1O ?
Result: 85.9

Q: Now the compound C=C(C)C(CC=C(C)C)Cc1c(O)cc(O)c2c(=O)c3ccc(O)c(O)c3oc12 (stereo unspecified)
Result: 84.1

Q: Okay, and C=C(C)C(CC=C(C)C)Cc1c(O)c(CC=C(C)C)c(O)c2c(=O)c3ccc(O)c(O)c3oc12 (stereo unspecified) ?
Result: 66
